TESTED ON: human CB1 receptor (Homo sapiens, UniProt P21554)
Construct: expressed in transfected cells; host or cells: HEK293
Sequence (P21554 whole entry): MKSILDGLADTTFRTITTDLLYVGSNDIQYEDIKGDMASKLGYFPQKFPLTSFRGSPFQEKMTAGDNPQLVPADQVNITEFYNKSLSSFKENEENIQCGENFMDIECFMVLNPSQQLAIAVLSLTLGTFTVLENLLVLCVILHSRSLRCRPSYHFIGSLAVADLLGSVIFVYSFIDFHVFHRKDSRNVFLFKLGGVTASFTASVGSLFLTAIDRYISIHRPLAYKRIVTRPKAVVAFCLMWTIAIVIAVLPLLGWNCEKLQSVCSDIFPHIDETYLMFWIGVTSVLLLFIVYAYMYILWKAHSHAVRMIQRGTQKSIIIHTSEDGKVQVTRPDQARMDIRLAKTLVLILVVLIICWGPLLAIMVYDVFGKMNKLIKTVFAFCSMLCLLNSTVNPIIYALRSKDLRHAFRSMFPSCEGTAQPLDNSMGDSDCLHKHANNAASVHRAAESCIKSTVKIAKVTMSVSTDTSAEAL
ASSAY OVERVIEW: bioSensAll β-arrestin2 plasma membrane translocation (+GRK2) BRET biosensor assay in HEK293 cells transfected with hCB1; test compound added before EC75-80 of agonist CP55,940 (100 nM)
Type: cell-based
TEST PARAMETERS: βArrestin2 (+GRK2) BRET biosensor, vs CP55,940 100 nM (EC75-80), read-out: CB1 wt βarr2 IC50
ASSAY READOUT: log10 IC50 (log10 of the value in nM)
In our notation, the value equals log10 of IC50 in nM.

Examples with their reported log10 IC50 follow.
CC(C)(O)COc1nc(N2CCC(C)(C(N)=O)CC2)c2nc(-c3ccc(C#N)nc3)n(-c3ccc(Cl)cc3)c2n1 [Compound 109]	1.79
CC(C)OC1(C(N)=O)CCN(c2nc(OCC(C)(C)O)nc3c2nc(-c2ccc(C#N)nc2)n3-c2ccc(Cl)cc2)CC1 [Compound 135]	1.07
CCOC1(C(N)=O)CCCN(c2nc(OCC(C)(C)O)nc3c2nc(-c2ccccc2Cl)n3-c2ccc(Cl)cc2)C1 (single isomer, unassigned) [Compound 217]	1.87

Sample OCCCOc1nc(N2CCC(C(F)(F)F)CC2)c2nc(-c3ccccc3Cl)n(-c3ccc(Cl)cc3)c2n1 [Compound 23] ; log10 IC50 observed: 0.64

Sample CC1(C(N)=O)CCN(c2nc(N3CC[C@@](C)(O)C3)nc3c2nc(-c2ccccc2Cl)n3-c2ccc(Cl)cc2)CC1 [Compound 223] ; log10 IC50 observed: 0.45

Sample CC(C)(O)CNc1nc(N2CCC(C)(C(N)=O)CC2)c2nc(-c3ccccc3Cl)n(-c3ccc(Cl)cc3)c2n1 [Compound 85] ; log10 IC50 observed: 0.83
